tested on: IL-12 induced STAT4 phophorylation mediated by Tyk2/JAK2 (heterodimeric complex); test: IL-12 Induced pSTAT4 in Human PBMC; format: cell-based; details: 1.7 ng/mL IL-12
quantity-name: IC50

Req: Given CNc1cc(Nc2cccc(-c3cnn(C)c3)c2Cl)nc2c(C(N)=O)cnn12 , respond with its IC50.
Resp: < 100 nM

Req: Given CNc1cc(Nc2cccc(C3CCCOC3)n2)nc2c(C(=O)N[C@@H]3C[C@@H]3F)cnn12 (stereo partly shown) , respond with its IC50.
Resp: < 100 nM

Req: Given CNc1cc(Nc2cc(C)cn(-c3cnn(C)c3)c2=O)nc2c(C(N)=O)cnn12 , respond with its IC50.
Resp: 100 to 500 nM

Req: Given [2H]C([2H])([2H])Oc1ncccc1Nc1cc(NC)n2ncc(C(=O)N[C@H]3C[C@H](O)C3)c2n1 , respond with its IC50.
Resp: < 100 nM
